Molecular target: T1, mouse SIRPα-Fc (mouse)
T1 construct: a signal peptide may be part of the entry; also called Ms; Ms SIRPα-Fc
T1 sequence (chain, as listed by the source limits assumed): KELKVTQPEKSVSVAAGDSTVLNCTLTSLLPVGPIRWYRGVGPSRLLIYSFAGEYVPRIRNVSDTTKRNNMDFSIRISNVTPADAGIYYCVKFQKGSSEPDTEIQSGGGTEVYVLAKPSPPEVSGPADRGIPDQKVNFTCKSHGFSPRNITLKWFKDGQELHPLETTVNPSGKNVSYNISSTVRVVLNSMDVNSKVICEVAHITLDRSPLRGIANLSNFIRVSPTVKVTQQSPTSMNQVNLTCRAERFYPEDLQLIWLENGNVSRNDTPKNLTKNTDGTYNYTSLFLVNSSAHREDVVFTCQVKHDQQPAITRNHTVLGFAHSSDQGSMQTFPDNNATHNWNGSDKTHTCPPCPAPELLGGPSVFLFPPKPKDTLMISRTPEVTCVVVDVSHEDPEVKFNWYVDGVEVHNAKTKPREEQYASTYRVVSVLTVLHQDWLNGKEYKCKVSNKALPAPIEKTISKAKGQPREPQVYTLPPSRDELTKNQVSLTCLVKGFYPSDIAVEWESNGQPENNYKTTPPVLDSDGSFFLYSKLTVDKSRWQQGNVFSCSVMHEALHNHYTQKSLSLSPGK
Test: BLI Octet, antigen-Fc on biosensor
parameter measured: Kd (nM)
Please reply with the bare figure in nM and do not write the unit itself.

stdin: Consider the binder SIRPAB-19 (antibody, human IgG1, kappa, V domains shown) VH: QVQLQESGPGLVKPSQTLSLTCTVSGGSISSGGYYWSWIRQHPGKGLEWIGAIYYSGPIYYNPSLKSRVTISVDTSKNQFSLKLSSVTAADTAVYYCSKEGYHSGMDVWGQGTTVTVSS VL: DIQMTQSPSSLSASVGDRVTITCQASDDISDYLNWYQQKPGKAPKLLIYDASNIEDGVPSRFSGSGSGTDFTFTISSLQPEDIATYYCQQFAYLPWTFGGGTKVEIKR and give its recorded Kd.
stdout: 1.02
